Target: recombinant human 15-PGDH (Homo sapiens (Human), UniProt P15428)
Sequence (P15428 whole entry): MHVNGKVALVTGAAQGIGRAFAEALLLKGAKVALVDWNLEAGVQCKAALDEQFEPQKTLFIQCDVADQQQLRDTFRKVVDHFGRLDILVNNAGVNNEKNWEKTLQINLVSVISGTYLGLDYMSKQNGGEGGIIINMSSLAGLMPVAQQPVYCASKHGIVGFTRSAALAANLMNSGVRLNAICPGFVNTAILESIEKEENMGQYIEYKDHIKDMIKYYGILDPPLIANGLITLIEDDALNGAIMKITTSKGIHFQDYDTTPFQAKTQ
Assay: 15-PGDH enzyme inhibition test
Settings: 4 nM recombinant human 15-PGDH, 30 μM PGE2, 1 mM NAD+, fluorescence 340/440 nm after 60 min
Method: 15-PGDH Enzyme Inhibition Test Test compounds and 4 nM recombinant human 15-PGDH (R&D systems) in 50 mM Tris-HCl (pH 8.0) containing 0.01% TWEEN 20 (Sigma) and 0.01% bovine gamma globulin (Sigma) were put into 384 Flat Bottom Black plates (Corning, 3820) and allowed to stand for 12 minutes at room temperature. […] Sixty minutes after the start of reaction, signals were measured at an excitation wavelength of 340 nm and a fluorescence emission wavelength of 440 nm using Synergy 2 (BioTeck). […]

{"Entry Smiles": "Cn1cnc2c1CCN(c1cccc3cc(C(=O)N4CCCCC4)ccc13)C2", "IC50": "3 to 10 nM"}
{"Entry Smiles": "NCCn1ncc2cc(-c3cccc4cc(C(=O)N5CCC(F)(F)CC5)ccc34)ccc2c1=O", "IC50": "< 3 nM"}
{"Entry Smiles": "Cc1nc2n(n1)CCN(c1cccc3cc(C(=O)N4CCCCC4)ccc13)C2", "IC50": "< 3 nM"}
{"Entry Smiles": "C[C@H]1CCCN(C(=O)c2ccc3c(-c4cnc5c(c4)CN(C)C5=O)cccc3c2)C1", "IC50": "< 3 nM"}

----------
target: recombinant human 15-PGDH (Homo sapiens (Human), UniProt P15428); test: 15-PGDH enzyme inhibition test; conditions: 4 nM recombinant human 15-PGDH, 30 μM PGE2, 1 mM NAD+, fluorescence 340/440 nm after 60 min
pIC50: −log10 of the molar value.

{"Molecule": "O=C(c1ccc2c(-c3cnc4c(=O)[nH]ncc4c3)cccc2c1)N1CCC(F)(F)CC1 [compound 57]", "pIC50": "> 8.52"}
{"Molecule": "O=C1NCc2nc(-c3cccc4cc(C(=O)N5CCC(F)(F)CC5)ccc34)ccc21 [compound 101]", "pIC50": "> 8.52"}
{"Molecule": "CN1Cc2cc(-c3nccc4cc(C(=O)N5CCC(F)(F)CC5)ccc34)ccc2C1=O [compound 156]", "pIC50": "8.00 to 8.52"}
{"Molecule": "O=C(c1ccc2c(-c3ccc4c(c3)CN(CC3CC(F)(F)C3)C4=O)cccc2c1)N1CCC(F)(F)CC1 [compound 40]", "pIC50": "8.00 to 8.52"}
{"Molecule": "Cn1ccc2cc(-c3c(F)ccc4cc(C(=O)N5CCC(F)(F)CC5)ccc34)ncc2c1=O [compound 157]", "pIC50": "8.00 to 8.52"}
{"Molecule": "CN1Cc2cc(-c3cncc4cc(C(=O)N5CCCCC5)ccc34)ccc2C1=O [compound 69]", "pIC50": "> 8.52"}
{"Molecule": "CS(=O)(=O)CCn1ncc2cc(-c3cccc4cc(C(=O)N5CCC(F)(F)CC5)ccc34)ccc2c1=O [compound 161]", "pIC50": "> 8.52"}
{"Molecule": "CN1Cc2cc(-c3cccc4cc(C(=O)N5CCC(F)(F)CC5)cnc34)ccc2C1=O [compound 99]", "pIC50": "8.00 to 8.52"}
{"Molecule": "CN1CC2CN(c3cccc4cc(C(=O)N5CCCCC5)ccc34)CCN2C1=O (stereo not shown) [compound 96]", "pIC50": "8.00 to 8.52"}
{"Molecule": "O=C(c1ccc2c(N3CCc4ncccc4C3)cccc2c1)N1CCCC2(CC2)C1 [compound 105]", "pIC50": "> 8.52"}
{"Molecule": "Cn1nc2n(c1=O)CCN(c1cccc3cc(C(=O)N4CCCCC4)ccc13)C2 [compound 74]", "pIC50": "> 8.52"}
{"Molecule": "O=C1NCc2cc(-c3cccc4cc(C(=O)N5CCC(F)(F)CC5)ccc34)cnc21 [compound 82]", "pIC50": "> 8.52"}
{"Molecule": "O=C(c1cnc2c(-c3cc4cc[nH]c(=O)c4cn3)cccc2c1)N1CCC(F)(F)CC1 [compound 133]", "pIC50": "8.00 to 8.52"}
{"Molecule": "O=C1NCc2cc(-c3cccc4cc(C(=O)N5CCC(F)(F)CC5)ccc34)ncc21 [compound 39]", "pIC50": "> 8.52"}
{"Molecule": "CN1C(=O)c2ccc(-c3cccc4cc(C(=O)N5CCC(F)(F)CC5)ccc34)cc2C1(C)C [compound 27]", "pIC50": "> 8.52"}
{"Molecule": "O=C(c1ccc2c(N3CCn4c(nn(CC(F)F)c4=O)C3)cccc2c1)N1CCC[C@H](C(F)(F)F)C1 [compound 93]", "pIC50": "> 8.52"}

----------
target: recombinant human 15-PGDH (Homo sapiens (Human), UniProt P15428); test: 15-PGDH enzyme inhibition test; conditions: 4 nM recombinant human 15-PGDH, 30 μM PGE2, 1 mM NAD+, fluorescence 340/440 nm after 60 min
pIC50: −log10 of the molar value.

{"Compound": "O=C(c1ccc2c(N3CCN4C(=O)CCC4C3)cccc2c1)N1CCCCC1 (centres unmarked)", "Experimental Target": "recombinant human 15-PGDH (Homo sapiens (Human), UniProt P15428)", "pIC50": "8.00 to 8.52"}
{"Compound": "C[C@H]1CCCN(C(=O)c2ccc3c(N4CCc5c(cc[nH]c5=O)C4)cccc3c2)C1", "Experimental Target": "recombinant human 15-PGDH (Homo sapiens (Human), UniProt P15428)", "pIC50": "> 8.52"}
{"Compound": "Cn1nc2n(c1=O)CCN(c1cccc3cc(C(=O)N4CCC[C@H](C(F)(F)F)C4)ccc13)C2", "Experimental Target": "recombinant human 15-PGDH (Homo sapiens (Human), UniProt P15428)", "pIC50": "> 8.52"}
{"Compound": "CN1Cc2cc(-c3cncc4cc(C(=O)N5CCC(F)(F)CC5)ccc34)ccc2C1=O", "Experimental Target": "recombinant human 15-PGDH (Homo sapiens (Human), UniProt P15428)", "pIC50": "> 8.52"}
{"Compound": "CN1Cc2cc(-c3cccc4cc(C(=O)N5CCCCC5)ccc34)ccc2C1=O", "Experimental Target": "recombinant human 15-PGDH (Homo sapiens (Human), UniProt P15428)", "pIC50": "> 8.52"}
{"Compound": "Cc1cc(C(N)=O)ccc1-c1cccc2cc(C(=O)N3CCC(F)(F)CC3)ccc12", "Experimental Target": "recombinant human 15-PGDH (Homo sapiens (Human), UniProt P15428)", "pIC50": "8.00 to 8.52"}
{"Compound": "Cc1nc2c(o1)CCN(c1cccc3cc(C(=O)N4CCCCC4)ccc13)C2", "Experimental Target": "recombinant human 15-PGDH (Homo sapiens (Human), UniProt P15428)", "pIC50": "8.00 to 8.52"}
{"Compound": "O=C(c1ccc2c(-c3ccc4c(=O)[nH]ccc4c3)cccc2c1)N1CCCCC1", "Experimental Target": "recombinant human 15-PGDH (Homo sapiens (Human), UniProt P15428)", "pIC50": "> 8.52"}
